# Test system: SK-MEL-28 melanoma
# MEASUREMENT_PROTOCOL: NCI-60 one-dose screen, 48 h (100 = growth as untreated, 0 = no growth, -100 = all killed)
# TEST_CONDITIONS: 10 µM unless noted
This is part of a sample that, as a whole, favours compounds with a hit. Of some 83,000 tested, about 20% had one in any assay.
ASSAY_READOUT: growth (%)
// note: answer is a bare numeric in %

Solved cases below.
                                   compound  assay_readout  numeric_value
0  COc1cc(C(=O)OCCCCCCCCCCC[P+](c2ccccc2)(c2ccccc2)c2ccccc2)ccc1O         growth          -66.1
1       CCC(C)NCC(=O)O (stereo unspecified)         growth            104
2  COc1cccc(/C=C2\SC(N3CCN(c4ccccn4)CC3)=NC2=O)c1         growth            110
3  COc1cc(C2C=C(C)N=C3SC=C(C)N32)cc(OC)c1OC (stereo unspecified)         growth          -75.5
4  N#Cc1c(NC(=O)c2ccc([N+](=O)[O-])o2)[n+]([O-])c2cc(F)c(F)cc2[n+]1[O-]         growth           99.7
5  COc1cccc(-n2cc(-c3nc(Cl)c4ccccc4n3)nn2)c1         growth             95
6  COc1ccc(S(=O)(=O)NCCNc2nccc(-c3c(-c4ccccc4)nc4sccn34)n2)cc1         growth           31.3
7                      COc1cc(Br)c(OC)cc1Br         growth            105
8                              CCNCc1ccncc1         growth            119
9  COc1ccc(C(=O)/C=C/c2cc(C(=O)c3cc(OC)c(OC)c(OC)c3)ccc2OC)cc1         growth           35.1

Asked: Kindly indicate its recorded growth. Item: Cc1ccc2c(c1)C(C)Cc1c(ncnc1-n1cnc3ccccc31)N2C (stereo unspecified)
Given back: 61.8

----------
# Tested on: U251 CNS
# MEASUREMENT_PROTOCOL: NCI-60 one-dose screen, 48 h
# TEST_CONDITIONS: 10 µM unless noted
About 83,000 compounds went through this panel and 20% of them were active in at least one assay; those are over-represented in the sample as a whole. The source made the active and inactive calls. The calls were made as follows: active = growth percent below 10; inactive = the rest.
Hi! Could you answer with just one of these? t (active), f (inactive)

Look over these answered cases.
In [3]: df
Out[3]:
                                   molecule  class_name
0  COc1cccc(/C=C/c2c(C(=O)O)cccc2[N+](=O)[O-])c1OC           f
1  COc1ccc(S(=O)(=O)N2CCN(c3cc4c(cc3F)c(=O)c(C(=O)O)cn4C3CC3)CC2)c(OC)c1           f
2  Cc1ccc(OCCn2c(C)nn(-c3ccc(Cl)cc3)c2=O)cc1           f
3  COc1ccc(S(=O)(=O)Nc2cc(/C=C\c3cc(OC)c(OC)c(OC)c3)cc(OC)c2OC)cc1OC           f
4  COc1ccc2c(c1)C=CC(C#N)N2C(=O)c1ccccc1 (configuration not stated)           f
5  CN=S(=O)(NC(=O)c1ccc(Cl)cc1Cl)c1ccc(Br)s1 (configuration not stated)           f

Asked: Just curious, what result did O=C1CCC(=O)N1Cc1ccccc1 get here?
Given back: f

Asked: Check the results log: what was the call for Cc1cccc2cc(/C=C/C(=O)/C=C/c3ccc(Cl)cc3)c(=O)[nH]c12 ?
Given back: f

----------
# Tested on: NCI-H226 lung
# MEASUREMENT_PROTOCOL: NCI-60 one-dose screen, 48 h (100 = growth as untreated, 0 = no growth, -100 = all killed)
# TEST_CONDITIONS: 10 µM unless noted
This is part of a sample that, as a whole, favours compounds with a hit. Of some 83,000 tested, about 20% had one in any assay.
ASSAY_READOUT: growth (%)
Number in %, nothing else.

Check out these entries, answers already filled in.
                                   compound  assay_readout  numeric_value
0  CN(C)c1ncc(-c2ccc(C(F)(F)F)cc2)c(NC2CCCCCC2)n1         growth           61.9
1                             c1ccn2nnnc2c1         growth            111
2    COc1ccc2c(c1)C(=O)/C(=C/c1ccc(O)cc1)O2         growth           78.2
3  O=c1[nH]c(-c2cn(-c3ccc(Cl)cc3)nn2)nc2ccccc12         growth           65.5
4         CN(C)CCCNC(=O)C(c1ccccc1)c1ccccc1         growth            106
5                       CCCOC(=O)C1(O)CCCC1         growth           92.9
6     Cc1ccc2nc(SCn3nnc4ccccc4c3=O)[nH]c2c1         growth            110
7  CCCCCCCCCCCCCCCCC(Br)C(=O)O (configuration not stated)         growth           95.5
8                       Cn1cc(C=O)c2ccccc21         growth           95.2
9  O=S(=O)(c1ccccc1)n1ccc(-c2ccc3c(c2)CCO3)n1         growth           64.6

Asked: Fill in reported growth for this entry: OC1CC2c3ccccc3C1c1ccccc12 (configuration not stated)
Given back: 106

Asked: Return growth (reported value) for this compound: C=C1C(=O)O[C@H]2[C@H]1CC/C(COC(=O)NCc1cc(OC)c(OC)c(OC)c1)=C\CC[C@@]1(C)O[C@@H]21
Given back: 76.2

----------
# Test system: K-562 leukemia
# MEASUREMENT_PROTOCOL: NCI-60 one-dose screen, 48 h (100 = growth as untreated, 0 = no growth, -100 = all killed)
# TEST_CONDITIONS: 10 µM unless noted
# Procedure: Cells are grown in 96 well plates and exposed to the test compound for 48 hours. Compounds are tested at a single concentration, which is 10^-5 M for most compounds. The reported endpoint is percent growth (GI% or GIPRCNT), where numbers from 0 - 100% represent growth inhibition, and numbers from -100% - 0 represent cell death. For example, a value of 40 represents 60% growth inhibition. A value of 0 means no net growth occurred over the course of the experiment. […]
Compounds without any hit were thinned out: in the full panel of roughly 83,000, 20% have a hit.
ASSAY_READOUT: growth (%)
Respond numerically; units are % and should not be typed.

// worked examples, growth included
>>> print(df.to_string())
                                   molecule  numeric_value
0   COc1cc(NCCN=C(N)NC(N)=NC(C)C)c2ncccc2c1           55.5
1  CCN1C(=O)N(CC)C2C1NN=c1s/c(=C\c3cccc(F)c3)c(=O)n12 (stereo not given)           8.99
2  Cn1c(=O)c2c(nc3n2CCN(CCc2ccc(OCCN4CCOCC4)cc2)C3)n(C)c1=O            109
3  Cc1ccc2c(c1)C(C)Cc1c(ncnc1-n1cnc3ccccc31)N2C (stereo not given)           6.64

We now examine a further molecule.
Asked: Specify measured growth for O=c1oc2cc(OS(=O)(=O)c3ccc(F)cc3)ccc2c2c1CCCCC2 .
Given back: 31.6

----------
# Tested on: IGROV1 ovarian
# MEASUREMENT_PROTOCOL: NCI-60 one-dose screen, 48 h (100 = growth as untreated, 0 = no growth, -100 = all killed)
# TEST_CONDITIONS: 10 µM unless noted
About 83,000 compounds went through this panel and 20% of them were active in at least one assay; those are over-represented in the sample as a whole.
Label 1 when growth < 90%; otherwise 0.

These recorded examples may help you get a feel for the data.
COMPOUND	CLASS_NAME
CC(C)(C)c1ccc(S(=O)(=O)Oc2ccc3c4c(c(=O)oc3c2)CCCCC4)cc1	1
NC(=O)c1c(NC(=O)c2ccc(OCC3CCCO3)cc2)sc2c1CCCC2 (stereo not given)	1
COC(=O)c1cc(-c2cccs2)c(C#N)c(N)c1C#N	0
CCNc1nc(N2CC(=O)Nc3cc(OC)ccc32)c2ccccc2n1	1
CCCCC[C@@H]1Cc2cc(O)c(C(=O)O)c3c2[C@H](C[C@@]2(CCCO2)O3)O1	1

Now for a further compound.
Asked: Take the compound CCn1cc(C(=O)O)c(=O)c2cc(F)c(N3CCN(S(=O)(=O)c4cccc5ccccc45)CC3)cc21 and say whether its growth is less than 90%.
Given back: 1
